Values compiled from paper PMC11995724.

System: V. cholerae SAD30
Construct: SAD30
Set-up: species or system S. aureus MSSA476 (TSB) or V. cholerae SAD30 (LB); 384-well bacterial growth screen at 25 uM, OD600 relative to DMSO control
Conditions Used: relative growth, OD600, LB; 25 µM; inhibitor
About 110 (3.4%) of roughly 3,200 compounds showed an effect of 50% or more. This is one part of a sample in which strong results are shown more often than they occur.
In plain terms, low % of control remaining, meaning strictly below 80%, gives satisfied, and everything else gives not satisfied.

query: Take the compound CCc1ccc(C(=O)CCl)cc1 [10-F18, 2-chloro-1-(4-ethylphenyl)ethan-1-one] and say whether its % of control remaining is less than 80%.
result: satisfied

query: Take the compound O=C(CCl)Cc1cccc(F)c1 [10-C11, 1-chloro-3-(3-fluorophenyl)propan-2-one] and say whether its % of control remaining is less than 80%.
result: satisfied

query: Take the compound CC(=O)NCCc1ccc(C(=O)CCl)cc1 [10-N03] and say whether its % of control remaining is less than 80%.
result: not satisfied

query: Take the compound C=CC(=O)N1CCN(S(=O)(=O)Cc2ccon2)CC1 [1-J07] and say whether its % of control remaining is less than 80%.
result: not satisfied

query: Take the compound O=C(CCl)Cc1cccc(Cl)c1 [10-E17, 1-chloro-3-(3-chlorophenyl)propan-2-one] and say whether its % of control remaining is less than 80%.
result: satisfied

query: Take the compound NC(=O)CCc1ccc(C(=O)CCl)cc1 [10-I03, 3-[4-(2-chloroacetyl)phenyl]propanamide] and say whether its % of control remaining is less than 80%.
result: satisfied

query: Take the compound O=C(CCl)NCCC1=CCCCC1 [4-H05] and say whether its % of control remaining is less than 80%.
result: not satisfied

query: Take the compound NC(=O)COc1ccc(C(=O)CCl)cc1 [10-M07, 2-[4-(2-chloroacetyl)phenoxy]acetamide] and say whether its % of control remaining is less than 80%.
result: satisfied

query: Take the compound O=C(CCl)Nc1cc(Cl)cc(Cl)c1 [4-K09, 2-chloro-N-(3,5-dichlorophenyl)acetamide] and say whether its % of control remaining is less than 80%.
result: not satisfied
